protocol: Single-dose pharmacokinetics in monkeys (p.o. and i.v.)
Assay type: in vivo, monkey
testContext: monkey, plasma, oral, 1.5 mg/kg; monkeys, p.o. vs i.v.; read-out: F (bioavailability)
measuredParameter: bioavailability

Which bioavailability is listed for "CC#C[C@@H](CC(=O)O)c1ccc(OCC(C)=C(C)C)cc1" ? ~99%

----------
protocol: in vivo
testContext: both sexes, Wistar Han, rat, po, 1200 mg/kg, Cmax
measuredParameter: Cmax (µg/mL)
Give bare numbers, in µg/mL.

Would you mind telling me what Cmax value was observed for "CC#C[C@@H](CC(=O)O)c1ccc(OCC(C)=C(C)C)cc1" ? 222

----------
testSystem: OATP1B3 (Homo sapiens, UniProt Q9NPD5)
Sequence (Q9NPD5 1-702): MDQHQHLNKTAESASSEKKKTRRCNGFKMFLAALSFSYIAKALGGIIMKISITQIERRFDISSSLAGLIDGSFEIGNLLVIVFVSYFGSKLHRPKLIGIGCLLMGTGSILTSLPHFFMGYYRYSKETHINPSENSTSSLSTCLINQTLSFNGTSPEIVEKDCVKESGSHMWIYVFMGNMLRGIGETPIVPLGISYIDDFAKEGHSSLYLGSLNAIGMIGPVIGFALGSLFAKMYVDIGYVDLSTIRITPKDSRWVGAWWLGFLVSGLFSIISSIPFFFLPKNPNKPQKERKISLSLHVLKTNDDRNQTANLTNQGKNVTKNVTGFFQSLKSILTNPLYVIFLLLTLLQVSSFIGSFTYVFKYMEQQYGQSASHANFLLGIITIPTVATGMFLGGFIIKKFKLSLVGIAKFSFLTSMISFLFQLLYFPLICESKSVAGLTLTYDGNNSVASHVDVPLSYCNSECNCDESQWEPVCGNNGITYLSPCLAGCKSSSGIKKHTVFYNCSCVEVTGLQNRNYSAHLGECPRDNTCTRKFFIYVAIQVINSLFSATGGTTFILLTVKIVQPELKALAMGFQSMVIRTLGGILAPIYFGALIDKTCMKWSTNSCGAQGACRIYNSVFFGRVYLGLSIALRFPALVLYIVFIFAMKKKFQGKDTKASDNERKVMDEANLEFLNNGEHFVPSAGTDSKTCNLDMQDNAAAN
protocol: Uptake transporter inhibition assay, OATP1B3
measuredParameter: pIC50
One number for each entry, as −log10 of the molar value.

I am curious: what pIC50 value has been reported for Cc1cc(OCCCS(C)(=O)=O)cc(C)c1-c1cccc(COc2ccc3c(c2)OC[C@H]3CC(=O)O)c1 [TAK-875, fasiglifam, reference compound] ? 5.46

Data origin, for the record: paper PMC8459971
